procedureSummary: Biodistribution of NBMI in plasma and tissues after oral gavage
Type: in vivo, rat (Sprague Dawley)
settings: male, Sprague Dawley, rat, kidney, po, 100 mg kg^−1

{"compound": "O=C(NCCS)c1cccc(C(=O)NCCS)c1 [NBMI, N,N′-bis(2-mercaptoethyl)isophthalamide]", "concentration at 1 h (ng/g)": 61.3}

----------
procedureSummary: Biodistribution of NBMI in plasma and tissues after oral gavage
Assay type: in vivo, rat (Sprague Dawley)
settings: male, Sprague Dawley, rat, bone marrow, po, 100 mg kg^−1
observationType: concentration at 1 h (ng/g)

{"compound": "O=C(NCCS)c1cccc(C(=O)NCCS)c1 [NBMI, N,N′-bis(2-mercaptoethyl)isophthalamide]", "dataValue": 12.5}

----------
procedureSummary: Plasma clearance after intravenous dosing
Type: in vivo, rat (Sprague-Dawley)
settings: male, Sprague-Dawley, rat, plasma, iv, 1 mg/kg, CL, clearance, iv 1 mg kg^−1, plasma, mean

{"compound": "O=C(NCCS)c1cccc(C(=O)NCCS)c1 [NBMI, N,N′-bis(2-mercaptoethyl)isophthalamide]", "valueUnit": "mL/min/kg", "clearance": 16.8}

----------
procedureSummary: Biodistribution of NBMI in plasma and tissues after oral gavage
Type: in vivo, rat (Sprague Dawley)
settings: male, Sprague Dawley, rat, small intestine, po, 100 mg kg^−1

{"molecule": "O=C(NCCS)c1cccc(C(=O)NCCS)c1 [NBMI, N,N′-bis(2-mercaptoethyl)isophthalamide]", "concentration at 24 h [ng/g]": 1040}

----------
procedureSummary: Plasma clearance after intravenous dosing
Type: in vivo, rat (Sprague-Dawley)
settings: male, Sprague-Dawley, rat, plasma, iv, 1 mg/kg, t1/2, half-life, iv 1 mg kg^−1, plasma, mean

{"molecule": "O=C(NCCS)c1cccc(C(=O)NCCS)c1 [NBMI, N,N′-bis(2-mercaptoethyl)isophthalamide]", "half-life": "6.18 h"}

----------
procedureSummary: Biodistribution of NBMI in plasma and tissues after oral gavage
Type: in vivo, rat (Sprague Dawley)
settings: male, Sprague Dawley, rat, bone marrow, po, 100 mg kg^−1

{"molecule": "O=C(NCCS)c1cccc(C(=O)NCCS)c1 [NBMI, N,N′-bis(2-mercaptoethyl)isophthalamide]", "valueUnit": "ng/g", "concentration at 8 h": 6.88}

----------
procedureSummary: Biodistribution of NBMI in plasma and tissues after oral gavage
Assay type: in vivo, rat (Sprague Dawley)
settings: male, Sprague Dawley, rat, liver, po, 100 mg kg^−1
observationType: concentration at 1 h

{"compound": "O=C(NCCS)c1cccc(C(=O)NCCS)c1 [NBMI, N,N′-bis(2-mercaptoethyl)isophthalamide]", "dataValue": "165 ng/g"}

----------
procedureSummary: Biodistribution of NBMI in plasma and tissues after oral gavage
Type: in vivo, rat (Sprague Dawley)
settings: male, Sprague Dawley, rat, subcutaneous fat, oral, 100 mg kg^−1
observationType: concentration at 24 h (ng/g)

{"compound": "O=C(NCCS)c1cccc(C(=O)NCCS)c1 [NBMI, N,N′-bis(2-mercaptoethyl)isophthalamide]", "valueUnit": "ng/g", "dataValue": 7}
